ASSAY TARGET: T1, TSHR coated onto tubes (human, UniProt P16473 21-764, limits assumed)
T1 construct: whole entry named; also called TSHR coated tubes; thyrotropin receptor
EXPERIMENT SUMMARY: TSHR coated tubes, competitor 125I-M22 IgG
Property: % inhib of 125I-M22 IgG binding at 100 µg/mL; scope: individual binders
Respond numerically; units are % and should not be typed.

BINDER: 2B4 IgG (antibody, V domains shown) VH: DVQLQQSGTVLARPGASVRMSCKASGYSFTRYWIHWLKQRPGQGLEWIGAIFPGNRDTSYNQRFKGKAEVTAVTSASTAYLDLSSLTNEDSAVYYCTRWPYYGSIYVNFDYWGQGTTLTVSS VL: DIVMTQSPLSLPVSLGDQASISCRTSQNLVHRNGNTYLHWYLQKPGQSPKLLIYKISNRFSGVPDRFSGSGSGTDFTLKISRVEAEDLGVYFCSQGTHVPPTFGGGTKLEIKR
UNIT LABEL: %
RESULT: 30
//
BINDER: 16E5 IgG (antibody, V domains shown) VH: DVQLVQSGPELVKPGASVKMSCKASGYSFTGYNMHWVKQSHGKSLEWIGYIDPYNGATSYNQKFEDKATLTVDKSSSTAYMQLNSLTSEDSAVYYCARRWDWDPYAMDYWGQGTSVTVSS VL: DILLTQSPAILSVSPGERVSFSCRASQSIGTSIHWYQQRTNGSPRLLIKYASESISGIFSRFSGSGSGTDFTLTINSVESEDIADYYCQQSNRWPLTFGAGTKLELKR
UNIT LABEL: %
RESULT: 53
//
BINDER: 9D33 IgG (antibody, V domains shown) VH: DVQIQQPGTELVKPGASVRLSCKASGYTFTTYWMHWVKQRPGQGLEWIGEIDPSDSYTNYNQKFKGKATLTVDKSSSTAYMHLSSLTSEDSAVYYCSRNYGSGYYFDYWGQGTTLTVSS VL: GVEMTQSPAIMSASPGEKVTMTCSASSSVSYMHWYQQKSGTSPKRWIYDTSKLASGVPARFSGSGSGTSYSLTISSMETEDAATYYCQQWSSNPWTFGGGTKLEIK
UNIT LABEL: %
RESULT: 61
//
BINDER: 14D3 IgG (antibody, V domains shown) VH: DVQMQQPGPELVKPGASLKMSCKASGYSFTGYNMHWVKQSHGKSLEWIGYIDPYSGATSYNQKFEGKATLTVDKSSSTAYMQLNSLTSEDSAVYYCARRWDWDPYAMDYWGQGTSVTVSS VL: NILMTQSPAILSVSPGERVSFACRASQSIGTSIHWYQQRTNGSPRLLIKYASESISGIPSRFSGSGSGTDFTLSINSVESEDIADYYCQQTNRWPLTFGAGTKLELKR
UNIT LABEL: %
RESULT: 62

Now look at this one.
Qu. Fill blank: measured % inhib of 125I-M22 IgG binding at 100 µg/mL of the binder 17D2 IgG (antibody, V domains shown) VH: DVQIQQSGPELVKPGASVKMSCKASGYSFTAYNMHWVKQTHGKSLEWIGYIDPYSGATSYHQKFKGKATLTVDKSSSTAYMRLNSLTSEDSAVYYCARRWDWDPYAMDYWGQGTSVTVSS VL: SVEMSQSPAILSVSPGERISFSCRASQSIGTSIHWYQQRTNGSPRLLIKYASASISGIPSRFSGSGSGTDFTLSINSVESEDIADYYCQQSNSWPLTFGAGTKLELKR is ____.
Ans. 49

All figures here come from patent US8840891.
